ASSAY COMMENT: Cytotoxicity evaluation, CellTiter-Blue Cell Viability Assay
Format: cell-based
REPORTED CONDITIONS: human, Zluc cells (Huh-7-derived cell line), read-out: HCV Replicon CC50
ASSAY ENDPOINT: CC50

Some solved entries appear below for comparison.
MOLECULE	CC50
C[C@@]1(O)[C@H](O)[C@@H](COP(=O)(O)NCc2ccccc2)O[C@H]1n1cnc2c(=O)[nH]c(N)nc21 [Compound 1]	> 50 µM
COc1nc(N)nc2c1ncn2[C@@H]1O[C@H](COP(=O)(N[C@@H](CC(C)C)C(=O)OC(C)C)OCOC(=O)OC(C)C)[C@@H](O)[C@@]1(C)O (stereo partly drawn) [Compound 7]	> 50 µM

The molecule listed as COc1nc(N)nc2c1ncn2[C@@H]1O[C@H](COP(=O)(NCc2ccccc2)OC(OC(=O)OC(C)C)C(C)C)[C@@H](O)[C@@]1(C)O (stereo partly drawn) [Compound 6] shows CC50 equal to < 50 µM

Origin of the recorded values: patent US20130064794A1
